# Tested on: Pharbitis purpurea (PHBPU)
# method.summary: Post-emergence herbicidal action against PHBPU
# Format: in vivo
# test.settings: dosage 320 g/ha
For each entry below, report its Post-emergence action against PHBPU in % value.
Quick reminder: number only, in %, skip the unit.

Given the compound COC(=O)CCOC(=O)COc1nn(-c2ccccn2)c(-c2ccc(F)nc2)c1F [Example I-309] , what is its reported Post-emergence action against PHBPU in %?
90

Quick check: Post-emergence action against PHBPU in % of Cc1cccnc1-n1nc(OCC(=O)O)c(Br)c1-c1cncc(F)c1 [Example I-204] ?
80

Looking for the measured Post-emergence action against PHBPU in % of CC(C)OC(=O)COc1nn(-c2ncccc2F)c(-c2ccc(F)nc2)c1C1CC1 [Example I-328] , can you help?
90

Which value of Post-emergence action against PHBPU in % has been reported for C#CCOC(=O)COc1nn(-c2ccccn2)c(-c2ccc(F)nc2)c1Br [Example I-360] in the records?
80

Endpoint output: Post-emergence action against PHBPU in % of COC(=O)CNC(=O)COc1nn(-c2cccc(C)n2)c(-c2ccc(F)nc2)c1Br [Example I-357] . Value?
80

I have this compound here, COC(=O)COc1nn(-c2nc(F)ccc2F)c(-c2cncc(F)c2)c1C1CC1 [Example I-164] , and I need its recorded Post-emergence action against PHBPU in %.
90

Consider the compound CCOC(=O)[C@@H](C)Oc1nn(-c2ncccc2F)c(-c2cncc(F)c2)c1Cl [Example I-145] and give its measured Post-emergence action against PHBPU in %.
90

Give its Post-emergence action against PHBPU in % value. Item: O=C(COc1nn(-c2ncccc2F)c(-c2ccc(F)nc2)c1C1CC1)OCC1CCCO1 (centres unmarked) [Example I-274]
80

====

# Test system: Viola tricolor (VIOTR)
# method.summary: Pre-emergence herbicidal action against VIOTR
# Type: in vivo
# test.settings: 320 g/ha, Viola tricolor
Exercise: for every item that follows, state its recorded Pre-emergence action against VIOTR in %.
Give your result in % as a bare value.

Field request: Pre-emergence action against VIOTR in % | item: C[C@@H](Oc1nn(-c2nc(F)ccc2F)c(-c2ccc(F)nc2)c1C1CC1)C(=O)O
100

Can you look up the measured Pre-emergence action against VIOTR in % of CCOC(=O)COc1nn(-c2ncccc2C)c(-c2cncc(F)c2)c1Br for me?
100

Item CCOC(=O)C(C)Oc1nn(-c2ccccn2)c(-c2ccc(F)nc2)c1Br (stereo not drawn) has what recorded Pre-emergence action against VIOTR in %?
100

Give the measured Pre-emergence action against VIOTR in % of COC(=O)CCOC(=O)COc1nn(-c2ccccn2)c(-c2ccc(F)nc2)c1Cl .
90

What does the data say about its Pre-emergence action against VIOTR in %? Entry: O=C(O)COc1nn(-c2ncccc2C(F)(F)F)c(-c2ccc(F)nc2)c1Cl
100

I have this compound here, COC(=O)CNC(=O)COc1nn(-c2ccccn2)c(-c2ccc(F)nc2)c1C1CC1 , and I need its recorded Pre-emergence action against VIOTR in %.
90

Which Pre-emergence action against VIOTR in % is listed for COC(=O)C(C)COC(=O)[C@@H](C)Oc1nn(-c2ccccn2)c(-c2cncc(F)c2)c1Br (stereo partly drawn) ?
100

Item under review: COC(=O)[C@@H](C)Oc1nn(-c2nc(F)ccc2F)c(-c2cncc(F)c2)c1Br . Reported Pre-emergence action against VIOTR in %?
100

Requested field: Pre-emergence action against VIOTR in %. Item: C[C@@H](Oc1nn(-c2nc(F)ccc2F)c(-c2ccc(F)nc2)c1Cl)C(=O)O
100

Entry under review: COC(=O)[C@@H](C)Oc1nn(-c2nc(F)ccc2F)c(-c2cncc(F)c2)c1C1CC1 . Reported Pre-emergence action against VIOTR in %?
100

Can you share its Pre-emergence action against VIOTR in %? I mean this compound: CS(=O)(=O)NC(=O)COc1nn(-c2ncccc2F)c(-c2ccc(F)nc2)c1Br
100

Name the recorded Pre-emergence action against VIOTR in % for CCOC(=O)COc1nn(-c2ncccc2C(F)(F)F)c(-c2ccc(F)nc2)c1Cl .
100

Record request: Pre-emergence action against VIOTR in % value, item CCOC(=O)COc1nn(-c2ncccc2C(F)(F)F)c(-c2ccc(F)nc2)c1Br
100

So what does the record say about Pre-emergence action against VIOTR in % for O=C(O)COc1nn(-c2ncccc2F)c(-c2ccc(F)nc2)c1Br [Example I-17] ?
100

Item under review: C[C@H](NC(=O)COc1nn(-c2ccccn2)c(-c2cncc(F)c2)c1Br)C(=O)O . Reported Pre-emergence action against VIOTR in %?
90

Please give the measured Pre-emergence action against VIOTR in % for this compound: O=C(O)C1CCCN1C(=O)COc1nn(-c2ccccn2)c(-c2ccc(F)nc2)c1Br (stereo not drawn)
100

Which Pre-emergence action against VIOTR in % is reported for this compound? COC(=O)CCOC(=O)[C@@H](C)Oc1nn(-c2ccccn2)c(-c2ccc(Cl)nc2)c1Cl
80

Fill in: Pre-emergence action against VIOTR in % of Cc1cccnc1-n1nc(OCC(=O)O)c(Cl)c1-c1ccc(F)nc1 is ___
100

Need Pre-emergence action against VIOTR in % of COC(=O)CNC(=O)COc1nn(-c2ccccn2)c(-c2ccc(F)nc2)c1Br , thanks.
100

What does the data say about its Pre-emergence action against VIOTR in %? Entry: CCOC(=O)COc1nn(-c2ncccc2Cl)c(-c2ccc(F)nc2)c1Br
100

Name the reported Pre-emergence action against VIOTR in % value associated with the compound COC(=O)COc1nn(-c2nc(F)ccc2F)c(-c2cncc(F)c2)c1Br
100

Which Pre-emergence action against VIOTR in % value is on record for CCOC(=O)CSc1nn(-c2ccccn2)c(-c2cncc(F)c2)c1C1CC1 ?
90

Please give the measured Pre-emergence action against VIOTR in % for this compound: COCCOCCOC(=O)COc1nn(-c2ncccc2F)c(-c2ccc(F)nc2)c1Br
100

Entry O=C(O)COc1nn(-c2ccccn2)c(-c2cncc(F)c2)c1Br : reported Pre-emergence action against VIOTR in % = ?
100

Fill in the blank: the reported Pre-emergence action against VIOTR in % of CCOC(=O)CN(C)S(=O)(=O)NC(=O)COc1nn(-c2ccccn2)c(-c2ccc(F)nc2)c1Br is ____.
80

So what does the record say about Pre-emergence action against VIOTR in % for COCCOC(=O)[C@@H](C)Oc1nn(-c2ncccc2F)c(-c2ccc(F)nc2)c1Br ?
100

Look up Pre-emergence action against VIOTR in % for this compound: CCOC(=O)COc1nn(-c2ccnc(Cl)c2)c(-c2ccc(F)nc2)c1Br
100

GET /values?readout=Pre-emergence action against VIOTR in %&item= CC(C)C(Oc1nn(-c2ccccn2)c(-c2ccc(F)nc2)c1Br)C(=O)O (stereo not drawn)
100

Field request: Pre-emergence action against VIOTR in % | item: C#CCOC(=O)COc1nn(-c2ccccn2)c(-c2ccc(F)nc2)c1Br
100

Value lookup for Pre-emergence action against VIOTR in %; key = COC(=O)COc1nn(-c2ncccc2Cl)c(-c2ccc(F)nc2)c1Br
100

// lookup Pre-emergence action against VIOTR in % for COC(=O)[C@@H](C)Oc1nn(-c2ccccn2)c(-c2cncc(F)c2)c1Br
100

Fill in: Pre-emergence action against VIOTR in % of CCOC(=O)[C@@H](C)Oc1nn(-c2ncccc2F)c(-c2ccc(F)nc2)c1Cl is ___
100

Give the measured Pre-emergence action against VIOTR in % of C=CCNC(=O)COc1nn(-c2ncccc2F)c(-c2ccc(F)nc2)c1Br .
90

====

# System: Triticum aestivum (TRZAS)
# Assay type: in vivo
# test.settings: crop plant compatibility, 80 g/ha, effect vs untreated controls
Provide the recorded Post-emergence action against TRZAS in % for the entries that follow.
Please respond with the number in % and leave the unit unwritten.

Could you share which Post-emergence action against TRZAS in % value was measured for CCOC(=O)COc1nn(-c2cccnc2C)c(-c2ccc(F)nc2)c1Br [II-46] ?
0

Return reported Post-emergence action against TRZAS in %; argument: COC(=O)C1CCCN(C(=O)COc2nn(-c3ccccn3)c(-c3ccc(F)nc3)c2Br)C1 (centres unmarked) [Example I-108]
20

# Post-emergence action against TRZAS in % lookup, item COCCOC(=O)COc1nn(-c2cccc(C)n2)c(-c2ccc(F)nc2)c1Br [Example I-277]
0

Suppose we examine the compound C=CCNC(=O)COc1nn(-c2ncccc2F)c(-c2ccc(F)nc2)c1Br [Example I-31] ; what Post-emergence action against TRZAS in % value has been reported?
10

// lookup Post-emergence action against TRZAS in % for CCOC(=O)COc1nn(-c2ncccc2F)c(-c2ccc(F)nc2)c1I [Example I-55]
0
